# target_system: full-length beta-Catenin (Uniprot ID P35222) (Homo sapiens)
# Construct: 10 nM full-length beta-Catenin (Uniprot ID P35222)
# Sequence (P35222 whole entry): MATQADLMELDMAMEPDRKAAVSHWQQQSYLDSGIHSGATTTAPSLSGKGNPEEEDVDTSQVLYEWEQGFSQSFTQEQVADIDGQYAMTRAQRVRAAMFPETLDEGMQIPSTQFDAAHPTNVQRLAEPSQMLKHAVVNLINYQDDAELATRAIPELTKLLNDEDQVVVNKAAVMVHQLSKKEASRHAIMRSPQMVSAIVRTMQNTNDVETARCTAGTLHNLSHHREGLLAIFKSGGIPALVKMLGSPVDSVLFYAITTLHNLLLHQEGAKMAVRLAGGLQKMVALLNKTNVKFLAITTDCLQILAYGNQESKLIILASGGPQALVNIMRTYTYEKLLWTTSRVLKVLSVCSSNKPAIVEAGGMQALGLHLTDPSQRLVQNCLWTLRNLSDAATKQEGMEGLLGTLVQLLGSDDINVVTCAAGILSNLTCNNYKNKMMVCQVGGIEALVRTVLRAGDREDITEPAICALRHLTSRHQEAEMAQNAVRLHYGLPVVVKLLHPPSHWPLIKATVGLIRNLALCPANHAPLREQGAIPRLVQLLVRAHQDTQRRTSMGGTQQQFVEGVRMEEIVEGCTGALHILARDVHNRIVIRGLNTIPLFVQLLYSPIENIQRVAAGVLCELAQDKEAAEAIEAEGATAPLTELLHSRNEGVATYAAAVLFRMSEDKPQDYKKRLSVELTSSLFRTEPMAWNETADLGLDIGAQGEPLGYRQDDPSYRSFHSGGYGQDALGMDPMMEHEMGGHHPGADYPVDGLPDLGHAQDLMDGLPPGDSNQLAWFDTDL
# assay_overview: Fluorescence polarization IC50 (beta-catenin / 5FAM-TCF4 10-53 competition)
# Assay type: binding
# run_conditions: fluorescence polarization, beta-catenin; read-out: FP EC50
quantity: pIC50
As a rule, pIC50 stands for the negative log10 of the concentration, concentration in M.

{"molecule": "CC(=O)N1CCC[C@]12CC=CCCCC1(CCCC=CCCCCCC[C@@](C)(C(=O)N[C@@H](Cc3ccccn3)C(=O)N[C@@H](Cc3csc4ccccc34)C(=O)N[C@@H](CCC(N)=O)C(N)=O)NC(=O)[C@H](C(C)C)NC(=O)[C@H](Cc3ccccc3)NC(=O)[C@H](C)NC(=O)[C@H](C)NC(=O)[C@H](CCC(=O)O)NC(=O)[C@H](CC(=O)O)NC1=O)NC(=O)[C@H](C)NC(=O)[C@H](CC(=O)O)NC2=O (some centres unmarked)", "pIC50": 6.75}

Field: next molecule
(Q) Recorded pIC50 for CC(=O)N1CCC[C@]12CC=CCCCC1(CCCC=CCCCOC(=O)N3CC[C@@](C(=O)N[C@@H](Cc4ccccc4Cl)C(=O)N[C@@H](Cc4csc5ccccc45)C(=O)N[C@H](C(N)=O)[C@@H](C)O)(C3)NC(=O)[C@H](CC(C)C)NC(=O)[C@H](Cc3ccccc3)NC(=O)[C@H](C)NC(=O)[C@H](C)NC(=O)[C@H](CCC(=O)O)NC(=O)[C@H](CC(=O)O)NC1=O)NC(=O)[C@H](CC(C)(C)C)NC(=O)[C@H](CC(=O)O)NC2=O (some centres unmarked) [I-1070] , please?
(A) 5.99
